- target or system: Mouse ACVR2A (mouse, UniProt P27038 20-135, limits assumed); also: test concentration or dose not given here
- Sequence (P27038 20-135 limits assumed): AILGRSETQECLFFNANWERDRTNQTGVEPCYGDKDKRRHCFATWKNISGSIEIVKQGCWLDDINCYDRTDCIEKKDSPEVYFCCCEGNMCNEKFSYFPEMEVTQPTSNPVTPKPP
- measurement protocol: ELISA
optical density vs 3 OD: at or above is Condition met, below is Condition not met.

- 374_C10 (antibody, V domains shown, VH/VL only) VH: EVQLLESGGGLVQPGGSLRLSCAASGFTFSSYSMNWVRQAPGKGLEWVSSINYNGGYKGYADSVKGRFTISRDNSKNTLYLQMNSLRAEDTAVYYCARGATWHDTHLDYWGQGTLVTVSS VL: DIQMTQSPSSLSASVGDRVTITCRASQSIVTYLNWYQQKPGKAPKLLIYAATSLASGVPSRFSGSGSGTDFTLTISSLQPEDFATYYCQQSYNTPLTFGGGTKVEIK: Condition met
- 365_D11 (antibody, V domains shown, VH/VL only) VH: EVQLLESGGGLVQPGGSLRLSCAASGFTFDSYGMNWVRQAPGKGLEWVSNINYNSGYTSYADSVKGRFTISRDNSKNTLYLQMNSLRAEDTAVYYCARSANWHDTALDYWGQGTLVTVSS VL: DIQMTQSPSSLSASVGDRVTITCRASQSIVSYLNWYQQKPGKAPKLVIYAATSRASGVPSRFSGSGSGTDFTLTISSLQPEDFATYYCQQSYSSPLTFGGGTKVEIK: Condition not met
- 365_F05 (antibody, V domains shown, VH/VL only) VH: EVQLLESGGGLVQPGGSLRLSCAASGFTFSSYGMNWVRQAPGKGLEWVASINYNGGYTSYADSVKGRFTISRDNSKNTLYLQMNSLRAEDTAVYYCARGATWHDTHLDYWGQGTLVTVSS VL: DIQMTQSPSSLSASVGDRVTITCRASQSIVTYVNWYQQKPGKAPKLLIYAATSRASGVPSRFSGSGSGTDFTLTISSLQPEDFATYYCQQSYETPLTFGGGTKVEIK: Condition not met
- 376_H01 (antibody, V domains shown, VH/VL only) VH: EVQLLESGGGLVQPGGSLRLSCAASGFTFSDYSMNWVRQAPGKGLEWVAGINYNGGYKGYADSVKGRFTISRDNSKNTLYLQMNSLRAEDTAVYYCARGANWHDTALDYWGQGTLVTVSS VL: DIQMTQSPSSLSASVGDRVTITCRASQSILTYLNWYQQKPGKAPKLLIYAATSRASGVPSRFSGSGSGTDFTLTISSLQPEDFATYYCQQSYSTPLTFGGGTKVEIK: Condition met
- 375_H08 (antibody, V domains shown, VH/VL only) VH: EVQLLESGGGLVQPGGSLRLSCAASGFTFSSYSMNWVRQAPGKGLEWVSGINYNGGYTSYADSVKGRFTISRDNSKNTLYLQMNSLRAEDTAVYYCARGATWHDTHLDYWGQGTLVTVSS VL: DIQMTQSPSSLSASVGDRVTITCRASQSILTYLNWYQQKPGKAPKLLIYAATSLASGVPSRFSGSGSGTDFTLTISSLQPEDFATYYCQQSYDSPLTFGGGTKVEIK: Condition met

Hello, the source for this data is patent US20210380703A1, in case you need it.
